MEASURED_ON: Cytochrome P450 2C19 (Homo sapiens) (UniProt P33261)
Sequence (P33261 whole entry, looked up): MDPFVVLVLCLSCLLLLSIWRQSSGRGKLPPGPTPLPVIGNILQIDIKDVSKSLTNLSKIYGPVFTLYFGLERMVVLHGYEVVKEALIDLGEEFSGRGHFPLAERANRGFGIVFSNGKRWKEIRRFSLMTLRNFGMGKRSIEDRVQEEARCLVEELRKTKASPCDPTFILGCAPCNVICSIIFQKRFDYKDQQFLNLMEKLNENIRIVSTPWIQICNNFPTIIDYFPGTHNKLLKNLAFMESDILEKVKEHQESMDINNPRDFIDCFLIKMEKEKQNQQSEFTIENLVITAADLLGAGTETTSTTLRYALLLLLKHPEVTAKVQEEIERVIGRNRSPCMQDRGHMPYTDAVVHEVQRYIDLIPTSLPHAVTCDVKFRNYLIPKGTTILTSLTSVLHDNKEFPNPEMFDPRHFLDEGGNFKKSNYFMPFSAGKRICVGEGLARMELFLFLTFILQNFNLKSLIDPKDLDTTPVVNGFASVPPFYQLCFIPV
PROCEDURE_TEXT: qHTS Assay for Inhibitors and Substrates of Cytochrome P450 2C19 (AID 899); also: nearly all actives have a fitted effect of over 60% in size; also: potency is read from the fitted curve at half-maximal effect
MEASUREMENT_CONTEXT: recombinant CYP2C19, luciferin-H EGE luminescence; series mostly up to 57.1 µM
Inconclusive results are not listed. Calls of active or inactive are those of the source. Calls follow the shape of the dose curve; as a rule, active = well fitted inhibition curve with a large enough effect; inconclusive = small, poorly fitted or top-dose-only effect; inactive = no such curve, though single readings can be large or run the other way.
MEASURED_ENDPOINT: Potency

Below, 8 compounds whose answers are already recorded.
// Potency value for `CS(=O)(=O)N1CCC2(CCN(c3cccc(-c4ccccc4)c3)CC2)CC1` : inactive

// Potency value for `CN(Cc1ccco1)c1cc(-c2ccccc2Cl)ncn1` : 7940 nM (active)

// Potency value for `COc1cccc(-c2cncnc2Nc2ccc(F)cc2)c1` : 398 nM (active)

// Potency value for `c1cncc(CNc2ccnc(-c3ccc4c(c3)OCO4)n2)c1` : 5010 nM (active)

// Potency value for `O=C(c1cccc(F)c1)N1CCC[C@@]2(CCN(Cc3nccs3)C2)C1` : 2510 nM (active)

// Potency value for `Cc1ccccc1-c1cncnc1NCc1ccccc1` : 2000 nM (active)

// Potency value for `CN(Cc1ccco1)c1ncncc1-c1ccccc1Cl` : 794 nM (active)

// Potency value for `O=C(c1cc(C(F)(F)F)cc(C(F)(F)F)c1)N1CCC[C@@]2(CCN(Cc3ccncc3)C2)C1` : 199 nM (active)

Others:
// Potency value for `CN1CCN(c2nc(-c3ccc(N(C)C)cc3)nc3ccccc23)CC1` : inactive

// Potency value for `CN(Cc1ccco1)c1ncnc2ccc(-c3ccccc3C(F)(F)F)cc12` : 3160 nM (active)

// Potency value for `Cc1ccccc1-c1cc(Nc2ccccc2)ncn1` : 3160 nM (active)
